experiment: chemical genetic growth profiling, strain panel (AID 1159580);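 further: tested at 20 µM; growth read once vehicle control cultures reached saturation at 30 °C; 1 = growth at the plate median or of vehicle wells; lower values mean less growth of the strain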; conditions: S. cerevisiae deletion strains, growth OD, locus YLR058C, strain SHM2, stronger effect = lower value
Hit rate of the full screen: of about 5,500 compounds, about 2,000 (36%) were called active. Inconclusive results (about 18%) are left out. The list shows a part of the results.
ENDPOINT_LABEL: normalized growth

- COMPOUND: "CC(Cc1ccc(O)c(O)c1)(NN)C(=O)O (stereo not drawn)"
  OBS_VALUE: 1.01
- COMPOUND: "O=C(O)CNCP(=O)(O)O"
  OBS_VALUE: 1.01
- COMPOUND: "COc1cc2c3cc1Oc1cc(ccc1O)OC1c4c(cc(OC)c(O)c4Oc4ccc(cc4)CC3N(C)CC2)CCN1C (stereo not drawn)"
  OBS_VALUE: 0.988
- COMPOUND: "CN(C)CCCO[C@H]1[C@@H](C(O)CO)OC2OC(C)(C)O[C@@H]21 (stereo partly drawn)"
  OBS_VALUE: 0.985
- COMPOUND: "S=c1[nH]c2ccccc2s1"
  OBS_VALUE: 0.962
- COMPOUND: "C[C@@]12C(=O)OC(=O)[C@]1(C)C1CCC2O1"
  OBS_VALUE: 0.931
- COMPOUND: "CCCN(CCC)C(=O)C(CCC(=O)O)NC(=O)c1ccccc1 (stereo not drawn)"
  OBS_VALUE: 0.997
- COMPOUND: "COc1cc2c(cc1O)CC1c3c(cc(O)c(OC)c3-2)CCN1C (stereo not drawn)"
  OBS_VALUE: 1.01
- COMPOUND: "O=C1O[C@@H](CO)[C@H](O)[C@@H](O)[C@@H]1O"
  OBS_VALUE: 1.01
- COMPOUND: "O=C(/C=C/c1ccc(O)c(O)c1)O[C@@H]1C[C@](O)(C(=O)O)C[C@@H](O)[C@H]1O"
  OBS_VALUE: 1.01
- COMPOUND: "CC[C@@H](C(=O)O)[C@@H]1O[C@@H]([C@@H](C)[C@H](O)[C@H](C)C(=O)[C@H](CC)[C@H]2O[C@]3(C=C[C@@H](O)[C@]4(CC[C@@](C)(C5CC[C@](O)(CC)[C@H](C)O5)O4)O3)[C@H](C)C[C@@H]2C)[C@@H](C)C[C@H]1C (stereo partly drawn)"
  OBS_VALUE: 0.432
- COMPOUND: "OC/C=C/c1ccc(O)c(O)c1"
  OBS_VALUE: 0.996
- COMPOUND: "Cc1ccc(C(C)C)cc2c(C)ccc1-2"
  OBS_VALUE: 1
- COMPOUND: "COc1ccc(-c2cc(C(F)F)nn2-c2ccc(S(N)(=O)=O)cc2)cc1F"
  OBS_VALUE: 1.01
- COMPOUND: "CC[C@@]1(C2O[C@@H](C3O[C@@](O)(CC)[C@H](C)C[C@@H]3C)C[C@@H]2C)CC[C@H]([C@]2(C)CCC3(C[C@H](O)[C@@H](C)[C@@H]([C@H](C)[C@@H](OC)[C@H](C)C(=O)O)O3)O2)O1 (stereo partly drawn)"
  OBS_VALUE: 0.989
- COMPOUND: "CO[C@@H]1C[C@@H](C[C@H]2CC[C@H](C)[C@H]([C@@H](C)C(=O)O)O2)O[C@]2(O[C@](C)([C@H]3CC[C@@](C)(C4O[C@@H](C5O[C@@](O)(CO)[C@H](C)C[C@@H]5C)C[C@@H]4C)O3)C[C@H]2C)[C@@H]1C (stereo partly drawn)"
  OBS_VALUE: 1.02
- COMPOUND: "CC(=O)C1=C(O)C2C3c4c[nH]c5cccc(c45)CC3C(C)(C)N2C1=O (stereo not drawn)"
  OBS_VALUE: 1
- COMPOUND: "CN1CCc2cccc3c2C1Cc1ccc(O)c(O)c1-3 (stereo not drawn)"
  OBS_VALUE: 1.01
